B1: Caulobacter ParB omega fusion; a variant is named by its letters at X, in order, B8GW30 (parent)
chain: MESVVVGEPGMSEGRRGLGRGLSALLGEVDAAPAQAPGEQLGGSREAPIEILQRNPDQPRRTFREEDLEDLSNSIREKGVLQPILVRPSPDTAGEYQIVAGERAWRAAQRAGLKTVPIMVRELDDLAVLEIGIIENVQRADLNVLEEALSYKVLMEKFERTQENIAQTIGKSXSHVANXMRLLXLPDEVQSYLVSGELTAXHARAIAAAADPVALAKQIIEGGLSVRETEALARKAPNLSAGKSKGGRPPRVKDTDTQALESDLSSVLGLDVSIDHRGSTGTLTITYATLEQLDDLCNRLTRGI

variants of: B1; experiment: one-hybrid fitness for binding parS DNA (scaled: cognate 1, non-cognate 0); higher = stronger binding; conditions: with parS DNA site
Over roughly 81,000 sequences, “one-hybrid fitness for binding parS DNA” has its median near -0.17; the highest 2% begin near 0.51. The entries come from a sample that favours the highest values as a whole.
MEASUREMENT_KIND: one-hybrid fitness for binding parS DNA

// below: answered variants
- MUTANT_CODE: "NARA"
  one-hybrid fitness for binding parS DNA: "≤ 0.2"
- MUTANT_CODE: "RSWF"
  one-hybrid fitness for binding parS DNA: "≤ 0.2"

Inquiry: What value of one-hybrid fitness for binding parS DNA has been recorded for this entry: RYYY
Reply text: 0.462

Inquiry: What value of one-hybrid fitness for binding parS DNA has been recorded for this entry: HTNV
Reply text: ≤ 0.2

Inquiry: What value of one-hybrid fitness for binding parS DNA has been recorded for this entry: RAWG
Reply text: 0.989

Inquiry: What value of one-hybrid fitness for binding parS DNA has been recorded for this entry: PGRS
Reply text: ≤ 0.2

Inquiry: What value of one-hybrid fitness for binding parS DNA has been recorded for this entry: RAPP
Reply text: ≤ 0.2

Inquiry: What value of one-hybrid fitness for binding parS DNA has been recorded for this entry: DITA
Reply text: ≤ 0.2

Inquiry: What value of one-hybrid fitness for binding parS DNA has been recorded for this entry: TPQT
Reply text: ≤ 0.2

Inquiry: What value of one-hybrid fitness for binding parS DNA has been recorded for this entry: RWEM
Reply text: ≤ 0.2

Inquiry: What value of one-hybrid fitness for binding parS DNA has been recorded for this entry: RALN
Reply text: 0.431

Inquiry: What value of one-hybrid fitness for binding parS DNA has been recorded for this entry: RYKP
Reply text: ≤ 0.2

Inquiry: What value of one-hybrid fitness for binding parS DNA has been recorded for this entry: RALS
Reply text: 1.03

Inquiry: What value of one-hybrid fitness for binding parS DNA has been recorded for this entry: VACC
Reply text: ≤ 0.2

Inquiry: What value of one-hybrid fitness for binding parS DNA has been recorded for this entry: TIDG
Reply text: ≤ 0.2

Inquiry: What value of one-hybrid fitness for binding parS DNA has been recorded for this entry: RWEF
Reply text: ≤ 0.2

Inquiry: What value of one-hybrid fitness for binding parS DNA has been recorded for this entry: EITA
Reply text: ≤ 0.2

Inquiry: What value of one-hybrid fitness for binding parS DNA has been recorded for this entry: RWEA
Reply text: 0.301

Inquiry: What value of one-hybrid fitness for binding parS DNA has been recorded for this entry: PENA
Reply text: ≤ 0.2

Inquiry: What value of one-hybrid fitness for binding parS DNA has been recorded for this entry: GRGV
Reply text: ≤ 0.2

Inquiry: What value of one-hybrid fitness for binding parS DNA has been recorded for this entry: RFTA
Reply text: 0.541

Inquiry: What value of one-hybrid fitness for binding parS DNA has been recorded for this entry: RYVS
Reply text: 0.976

Inquiry: What value of one-hybrid fitness for binding parS DNA has been recorded for this entry: GMLK
Reply text: ≤ 0.2

Inquiry: What value of one-hybrid fitness for binding parS DNA has been recorded for this entry: RITA
Reply text: 0.55

Inquiry: What value of one-hybrid fitness for binding parS DNA has been recorded for this entry: RYVN
Reply text: 0.364
